- ASSAY PROTOCOL: Agilent ZORBAX 300 SB-C18, 150 × 1 mm, 3.5 µm; A: water + 0.01% heptafluorobutyric acid; B: acetonitrile + 0.01% heptafluorobutyric acid; gradient (min/%B) 0/0 100/90
- CONDITION PARAMETERS: stereoisomer not certain
Kind request: treat 8 min as inclusive, so LC retention time at 8 min or higher is yes (1), anything lower is no (0).

Nc1nc2ccccc2[nH]1 :: no (0)
CNCCNC :: no (0)
O=c1[nH]c(N=NCc2ccccc2O)nnc1Cc1ccccc1 :: yes (1)

Task: For this molecule, is measured LC retention time 8 min or higher? CC(=O)c1c[nH]cc1C
Result: no (0)

Task: Next: Cc1ccc(-c2cnc3ccccc3n2)cc1
Result: yes (1)

* * *

# key: entry, value: LC retention time
- ASSAY PROTOCOL: Agilent ZORBAX 300 SB-C18, 150 × 1 mm, 3.5 µm; A: water + 0.01% heptafluorobutyric acid; B: acetonitrile + 0.01% heptafluorobutyric acid; gradient (min/%B) 0/0 100/90
- CONDITION PARAMETERS: stereoisomer not certain
Please give a number only; it is taken to be in min.

CC(=O)C1C(=O)C=C(c2ccco2)CC1c1ccco1 (stereo unspecified) :: 13.2
Cc1cc(=O)[nH]c(N=C(N)N2CCOCC2)n1 :: 6.89
NC1=NCCS1 :: 5.28
O=C(CC1COc2ccccc2O1)N1CCOCC1 (stereo unspecified) :: 10.5
CCNc1ccccc1C :: 8.47
c1csc(-c2cnc3ccccc3n2)c1 :: 14.3

Task: // LC retention time lookup, key: CC(O)CCN (stereo unspecified)
Result: 3.82

Task: Next: CCN(CC)c1ccc(CNCCCN(C)C)cc1
Result: 7.76

Task: Next: COC(=O)c1cccc(N=C2N=C(N)c3ccccc32)c1
Result: 9.59

Task: Next: CCOC(=O)C(C(C)=NNC(=O)c1ccc(NC(C)=O)cc1)C(C)C (stereo unspecified)
Result: 10.8

Task: Next: CC(=O)NC(NC(C)=O)c1ccncc1
Result: 5.53

Task: Next: CC[N+](CC)(CC)CCOc1cccc(OCC[N+](CC)(CC)CC)c1OCC[N+](CC)(CC)CC
Result: 8.44

Task: Next: COC(=O)CCN1CCCCC1
Result: 7.02

Task: Next: c1ccc(CNCc2ccccc2)cc1
Result: 9.71

Task: Next: COc1cc2c(cc1OC)NC(=O)C2
Result: 7.73

Task: Next: CCOc1nc(N(c2ccccc2)c2ccccc2)[nH]c(=O)n1
Result: 11.7

Task: Next: c1ccc(-c2nc(-c3cccnc3)[nH]c2-c2ccccc2)cc1
Result: 11

Task: Next: Cc1ccncc1
Result: 6.26

Task: Next: CCn1c(-c2ccccc2)csc1=Nc1ccc(C)c(C)c1
Result: 12.5

Task: Next: c1ccc2[nH]ncc2c1
Result: 9.07

* * *

- ASSAY PROTOCOL: Agilent ZORBAX 300 SB-C18, 150 × 1 mm, 3.5 µm; A: water + 0.01% heptafluorobutyric acid; B: acetonitrile + 0.01% heptafluorobutyric acid; gradient (min/%B) 0/0 100/90
- CONDITION PARAMETERS: stereoisomer not certain
# strict inequality: LC retention time < 10 min yields t, everything else yields f

A selection of reference data follows.
CC(NC(=O)c1cccnc1)C(=O)N1CCCCC1 (stereo unspecified) :: t
Cc1[nH]c(C=O)c(C)c1C :: f
Nc1cc[n+](Cc2ccccc2)cc1 :: t
O=C(O)Cn1c(=O)c(-c2ccccc2)nc2ccccc21 :: f
CCCCCC[N+](C)(C)Cc1ccccc1 :: f

Below: the item to evaluate.
Task: is_below(LC retention time, 10 min) for CCCCCCCCCCCCN(C)C ?
Result: f
